- Test system: SK-MEL-28 melanoma
- methodNotes: NCI tumour cell line growth inhibition, 48 h; in the data active means GI50 below about 0.43 µM; inactive means the rest
Just give me one of these, please: Yes (active), No (inactive)

Look over these answered cases.
molecule: O=C(O[C@H]1CN[C@H](C#Cc2cc3ncnc(Nc4ccc(OCc5cccc(F)c5)c(Cl)c4)c3s2)C1)N1CCOCC1
targetOfAssay: SK-MEL-28 melanoma
label: No
//
molecule: COc1cc2c(=O)n(CCCn3ccnc3)c3c4cc5c(cc4ccc3c2cc1OC)OCO5
targetOfAssay: SK-MEL-28 melanoma
label: No
//
molecule: COc1cc(/C=C2\CN(S(=O)(=O)c3ccc(C)cc3)C/C(=C\c3cc(CN4CCCCC4)c(O)c(OC)c3)C2=O)cc(CN2CCCCC2)c1O
targetOfAssay: SK-MEL-28 melanoma
label: No
//
molecule: COC(=O)c1cc2c3c(cc(O)c2[nH]1)N(C(=O)C1Cc2cc(OC)c(OC)c(OC)c2N1)CC3CCl (configuration not stated)
targetOfAssay: SK-MEL-28 melanoma
label: Yes
//
molecule: C[C@@H](Oc1cc(NS(=O)(=O)N2CCC2)nc(SCc2cccc(F)c2F)n1)[C@@H](O)CO
targetOfAssay: SK-MEL-28 melanoma
label: No
//
molecule: N#C/C(=C/C=C/c1ccccc1)S(=O)c1ccccc1 (configuration not stated)
targetOfAssay: SK-MEL-28 melanoma
label: No

With those in mind, consider the next molecule.
State the result this test recorded for CC1OC(O[C@H]2/C=C/C=C/C=C/C=C/C=C/C=C/C=C/[C@H](C)[C@@H](O)[C@@H](C)[C@H](C)OC(=O)C[C@H](O)C[C@H](O)CC[C@@H](O)[C@H](O)C[C@H](O)C[C@]3(O)C[C@H](O)[C@@H](C(=O)O)[C@H](C2)O3)C(O)C(N)C1O (some centres not stated) .
No
